measurement target: AcuA (Bacillus subtilis, UniProt P39065)
Construct: monomer 21 kDa by mass photometry
Sequence (P39065 whole entry): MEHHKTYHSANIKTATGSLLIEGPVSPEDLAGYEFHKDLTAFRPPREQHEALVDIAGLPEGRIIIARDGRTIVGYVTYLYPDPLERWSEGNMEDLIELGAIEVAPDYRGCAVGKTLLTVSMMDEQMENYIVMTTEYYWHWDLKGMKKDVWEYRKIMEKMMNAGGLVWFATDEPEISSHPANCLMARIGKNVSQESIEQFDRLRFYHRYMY
protocol summary: isothermal titration calorimetry, one binding site model
pKd: −log10 of the molar value.
measured endpoint: pKd

CC(=O)SCCNC(=O)CCNC(=O)[C@H](O)C(C)(C)COP(=O)(O)OP(=O)(O)OC[C@H]1O[C@@H](n2cnc3c(N)ncnc32)[C@H](O)[C@@H]1OP(=O)(O)O
5.02

Reference source: paper PMC11910552
